- Test system: 276233-004-R-J1-PDC complex spheroid viability;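 also: spheroids exposed to drugs for seven days; 100% = DMSO vehicle control viability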
- Assay Notes: Anticancer human tumor 276233-004-R-J1-PDC patient-derived colon adenocarcinoma cell line growth inhibition [GQUAD]
- Condition Info: second compound 10 µM; first compound 3.16 µM; hits give low values
As shown below, each of these molecules has a reported viability, T/C value.

[
  {
    "Molecule": "CC(=O)O[C@H]1C(=O)[C@@]2(C)[C@H]([C@H](OC(=O)c3ccccc3)[C@]3(O)C[C@H](OC(=O)[C@H](O)[C@@H](NC(=O)c4ccccc4)c4ccccc4)C(C)=C1C3(C)C)[C@]1(OC(C)=O)CO[C@@H]1C[C@@H]2O + Cc1cnc(CNC(=O)c2c(=O)c3ccc(N4CCCN(C)CC4)nc3n3c2sc2ccccc23)cn1",
    "Result": "51.4%"
  },
  {
    "Molecule": "C#Cc1c(F)ccc2cc(O)cc(-c3ncc4c(N5CC6CCC(C5)N6)nc(OCC56CCCN5CC(F)C6)nc4c3F)c12 (centres undefined) + Cc1cnc(CNC(=O)c2c(=O)c3ccc(N4CCCN(C)CC4)nc3n3c2sc2ccccc23)cn1",
    "Result": "43.2%"
  }
]

So what does the record say about viability, T/C for C=CC(=O)N1CCN(c2nc(=O)n(-c3c(C)ccnc3C(C)C)c3nc(-c4c(O)cccc4F)c(F)cc23)C(C)C1 (centres undefined) + Cc1[nH]c2ccc(F)cc2c1-c1nc2c3cccnc3c3ncccc3c2[nH]1 ?
56%

So what does the record say about viability, T/C for CC1COCCN1c1cc(C2(O)CC3CCC(C2)O3)c2cnn(-c3ccn[nH]3)c2n1 (centres undefined) + Cc1[nH]c2ccc(F)cc2c1-c1nc2c3cccnc3c3ncccc3c2[nH]1 ?
26.7%

So what does the record say about viability, T/C for O=C(c1cc(Cc2n[nH]c(=O)c3ccccc23)ccc1F)N1CCN(C(=O)C2CC2)CC1 + Cc1[nH]c2ccc(F)cc2c1-c1nc2c3cccnc3c3ncccc3c2[nH]1 ?
55%

So what does the record say about viability, T/C for CC(C)(O)C1CCC(Nc2ccc3ncc(-c4cccc(C(F)(F)F)c4)n3n2)CC1 (centres undefined) + Cc1cnc(CNC(=O)c2c(=O)c3ccc(N4CCCN(C)CC4)nc3n3c2sc2ccccc23)cn1 ?
7.86%

So what does the record say about viability, T/C for COc1cccc2c1C(=O)c1c(O)c3c(c(O)c1C2=O)CC(O)(C(=O)CO)CC3OC1CC(N)C(O)C(C)O1 (centres undefined) + CN(C)c1ccc(Nc2c3ccc(NC(=O)CCN4CCCC4)cc3nc3cc(NC(=O)CCN4CCCC4)ccc23)cc1 ?
50.5%

So what does the record say about viability, T/C for CC1COCCN1c1cc(-c2ccnn2C)c2ccnc(-c3ccn[nH]3)c2n1 (centres undefined) + CN(C)c1ccc(Nc2c3ccc(NC(=O)CCN4CCCC4)cc3nc3cc(NC(=O)CCN4CCCC4)ccc23)cc1 ?
39.8%

So what does the record say about viability, T/C for CC(=O)O[C@H]1C(=O)[C@@]2(C)[C@H]([C@H](OC(=O)c3ccccc3)[C@]3(O)C[C@H](OC(=O)[C@H](O)[C@@H](NC(=O)c4ccccc4)c4ccccc4)C(C)=C1C3(C)C)[C@]1(OC(C)=O)CO[C@@H]1C[C@@H]2O + CN(C)c1ccc(Nc2c3ccc(NC(=O)CCN4CCCC4)cc3nc3cc(NC(=O)CCN4CCCC4)ccc23)cc1 ?
51.9%
